# studyTarget: Adrenergic receptor alpha-1 (Rattus norvegicus) (UniProt P15823+P23944+P43140)
# assayMethodText: Alpha-1 adrenergic receptor binding activity relative to idazoxan.
# Type: protein assay
Recorded Relative potency for the following molecules
valueType: Relative potency

>>> experimentalresult("CCCC1(C2=NCCN2)COc2ccccc2O1 (centres undefined)")
1.7
>>> experimentalresult("c1ccc(COC2(C3=NCCN3)COc3ccccc3O2)cc1 (centres undefined)")
1.2
>>> experimentalresult("COC1(C2=NCCN2)COc2ccccc2O1 (centres undefined)")
4
>>> experimentalresult("CCCOC1(C2=NCCN2)COc2ccccc2O1 (centres undefined)")
0.9

###

Recorded Ratio for the following molecules
# studyTarget: Adrenergic receptor alpha (Rattus norvegicus) (UniProt P15823+P23944+P43140+P22086+P19328+P22909)
# assayMethodText: Selectivity as ratio […] against alpha-2 receptor to that of alpha-1 receptor.
# Format: protein assay
valueType: Ratio

>>> experimentalresult("COc1ccccc1COC1(C2=NCCN2)COc2ccccc2O1 (stereo not drawn)")
0.75
>>> experimentalresult("CCOC1(C2=NCCN2)COc2ccccc2O1.Cl (stereo not drawn)")
0.8
>>> experimentalresult("CCCOC1(C2=NCCN2)COc2ccccc2O1 (stereo not drawn)")
1.5
>>> experimentalresult("CCCCCOC1(C2=NCCN2)COc2ccccc2O1 (stereo not drawn)")
1.2
>>> experimentalresult("COC1(C2=NC(C)CN2)COc2ccccc2O1 (stereo not drawn)")
0.09
>>> experimentalresult("OCCOC1(C2=NCCN2)COc2ccccc2O1 (stereo not drawn)")
1.4
>>> experimentalresult("c1ccc(OC2(C3=NCCN3)COc3ccccc3O2)cc1 (stereo not drawn)")
0.023
>>> experimentalresult("Cc1cccc(OC2(C3=NCCN3)COc3ccccc3O2)c1 (stereo not drawn)")
1.75
>>> experimentalresult("C=CCOC1(C2=NCCN2)COc2ccccc2O1 (stereo not drawn)")
0.3
>>> experimentalresult("c1ccc2c(c1)OCC(C1=NCCN1)(C1CCCC1)O2 (stereo not drawn)")
0.04
>>> experimentalresult("C1=C(C2(C3=NCCN3)COc3ccccc3O2)CC1.Cl (stereo not drawn)")
2.3
>>> experimentalresult("COc1cc2c(cc1OC)OC(OC)(C1=NCCN1)CO2 (stereo not drawn)")
0.1
>>> experimentalresult("C=CC1(C2=NCCN2)COc2ccccc2O1 (stereo not drawn)")
3.3
>>> experimentalresult("CC1(C2=NCCN2)COc2ccccc2O1.Cl (stereo not drawn)")
2.4
>>> experimentalresult("CCCCC1(C2=NCCN2)COc2ccccc2O1 (stereo not drawn)")
0.68
>>> experimentalresult("CC1Oc2ccccc2OC1C1=NCCN1 (stereo not drawn)")
0.087
>>> experimentalresult("c1ccc2c(c1)OCC(OC1CCCC1)(C1=NCCN1)O2 (stereo not drawn)")
0.16
>>> experimentalresult("CCC1(C2=NCCN2)COc2ccccc2O1 (stereo not drawn)")
1.3
>>> experimentalresult("c1ccc(C2(C3=NCCN3)COc3ccccc3O2)cc1 (stereo not drawn)")
1.6
>>> experimentalresult("C=C(C)C1(C2=NCCN2)COc2ccccc2O1.Cl (stereo not drawn)")
5.7
>>> experimentalresult("c1ccc(CCOC2(C3=NCCN3)COc3ccccc3O2)cc1 (stereo not drawn)")
0.14
>>> experimentalresult("c1ccc(COC2(C3=NCCN3)COc3ccccc3O2)cc1 (stereo not drawn)")
0.7
>>> experimentalresult("C1=C(C2(C3=NCCN3)COc3ccccc3O2)CCC1 (stereo not drawn)")
1.7
>>> experimentalresult("CC(C)OC1(C2=NCCN2)COc2ccccc2O1 (stereo not drawn)")
1.6
>>> experimentalresult("OCCCCOC1(C2=NCCN2)COc2ccccc2O1 (stereo not drawn)")
0.24
>>> experimentalresult("C1=C(C2(C3=NCCN3)COc3ccccc3O2)CCCC1 (stereo not drawn)")
0.035
>>> experimentalresult("COc1ccc(OC2(C3=NCCN3)COc3ccccc3O2)cc1 (stereo not drawn)")
0.17
>>> experimentalresult("C#CCOC1(C2=NCCN2)COc2ccccc2O1 (stereo not drawn)")
0.57

Reference for the values: ChEMBL document CHEMBL1123096
